- Target entity: human TRPM8 (Homo sapiens)
- Sequence (Q7Z2W7 whole entry): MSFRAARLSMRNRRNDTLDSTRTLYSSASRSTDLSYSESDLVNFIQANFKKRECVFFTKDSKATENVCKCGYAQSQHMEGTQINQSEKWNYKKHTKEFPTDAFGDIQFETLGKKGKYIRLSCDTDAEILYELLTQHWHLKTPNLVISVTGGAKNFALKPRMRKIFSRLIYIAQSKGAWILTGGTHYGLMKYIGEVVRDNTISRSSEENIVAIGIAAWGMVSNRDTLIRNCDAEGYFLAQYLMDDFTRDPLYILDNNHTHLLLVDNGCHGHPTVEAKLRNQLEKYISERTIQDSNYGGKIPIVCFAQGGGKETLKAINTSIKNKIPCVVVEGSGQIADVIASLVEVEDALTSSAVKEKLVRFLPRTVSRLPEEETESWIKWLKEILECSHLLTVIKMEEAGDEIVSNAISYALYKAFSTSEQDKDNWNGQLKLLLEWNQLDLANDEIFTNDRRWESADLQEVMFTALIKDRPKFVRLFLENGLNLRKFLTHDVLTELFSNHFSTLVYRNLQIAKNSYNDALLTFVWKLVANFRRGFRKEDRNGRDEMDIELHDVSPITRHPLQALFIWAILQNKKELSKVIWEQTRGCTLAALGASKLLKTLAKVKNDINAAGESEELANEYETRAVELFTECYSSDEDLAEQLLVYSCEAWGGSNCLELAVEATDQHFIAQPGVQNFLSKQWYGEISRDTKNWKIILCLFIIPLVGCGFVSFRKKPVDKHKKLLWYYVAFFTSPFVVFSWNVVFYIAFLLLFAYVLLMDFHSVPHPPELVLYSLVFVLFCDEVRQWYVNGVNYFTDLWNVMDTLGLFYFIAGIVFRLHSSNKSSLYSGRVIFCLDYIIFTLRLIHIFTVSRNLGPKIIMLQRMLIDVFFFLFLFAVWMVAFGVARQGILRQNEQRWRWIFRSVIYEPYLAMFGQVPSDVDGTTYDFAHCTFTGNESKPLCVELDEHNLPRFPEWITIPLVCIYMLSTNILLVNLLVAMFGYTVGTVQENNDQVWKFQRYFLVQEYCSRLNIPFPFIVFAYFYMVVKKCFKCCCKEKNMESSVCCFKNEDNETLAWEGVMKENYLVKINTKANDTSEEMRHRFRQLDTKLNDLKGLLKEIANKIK
- Measurement notes: FLIPR intracellular calcium flux (Fluo-4) in HEK cells stably transfected with human TRPM8
- Condition context: pre-treatment with 100 uM test compound + 6.25 uM G-180 vs 6.25 uM G-180 alone; calcium fluorescence
Measured parameter: % Change from G-180 value (%)
Numeric only. Scale: %

{"columns": ["Compound", "Target entity", "Output unit", "% Change from G-180 value"],
 "data": [
  ["O=P(O)(O)O[C@H]1[C@H](OP(=O)(O)O)[C@@H](OP(=O)(O)O)[C@H](OP(=O)(O)O)[C@@H](OP(=O)(O)O)[C@H]1OP(=O)(O)O", "human TRPM8 (Homo sapiens)", "%", 23.36]
]}

Next compound, % Change from G-180 value to be filled in.
stdin: What does the data say about its % Change from G-180 value? Entry: O=P([O-])(O)OP(=O)([O-])O.[Na+].[Na+] [Sodium acid pyrophosphate]
stdout: 3.22

---

- Target entity: UniProtKB Q7Z2W7
- Measurement notes: FLIPR intracellular calcium flux (Fluo-4) in HEK cells stably transfected with human TRPM8
- Condition context: pre-treatment with 100 uM test compound + 6.25 uM G-180 vs 6.25 uM G-180 alone; calcium fluorescence
Measured % Change from G-180 value, listed per entry.

Check out these entries, answers already filled in.
{"columns": ["Compound", "Meas value"],
 "data": [
  ["O=P(O)(O)OP(=O)(O)OP(=O)(O)O [Sodium tripolyphosphate]", "5.69%"],
  ["O=P([O-])([O-])OP(=O)([O-])OP(=O)([O-])[O-].[Na+].[Na+].[Na+].[Na+].[Na+] [Penta sodium triphosphate]", "0.66%"]
]}

Next compound, % Change from G-180 value to be filled in.
stdin: What does the data say about its % Change from G-180 value? Entry: CCCCCCCCCCCCOP(=O)([O-])[O-].[Na+].[Na+] [Sodium lauryl phosphate]
stdout: 5.10%
